test system: OVCAR-3; assay: NCI tumour cell line growth inhibition, 48 h
Activity calls are given as the source filed them. No stated cut-off is given here; in the data, active = GI50 up to about 1.1 µM and inactive = higher.
measurement_kind: GI50

// GI50 value for CCCCCCCCCCCCCCCCSCC(COC)COP(=O)([O-])OCC[N+](C)(C)C (centres undefined) : 5.38 µM (inactive)

# GI50 (molecule: `CCOP(=O)(OCC)/C(=C\n1c(=S)[nH]c2cc(C)ccc21)C(=O)OC` ) is > 100 µM (inactive)

Item: O=C1CCC2(CC1CCSc1ccccc1)OCCO2 (centres undefined) | GI50: > 100 µM (inactive)

New cases:
// `C[C@@]12C[C@@H](c3ccccc3O1)N1CCSC1=N2` : GI50 value = > 100 µM (inactive)

----------
tested on: SF-268; experiment: NCI tumour cell line growth inhibition, 48 h
Active and inactive are the calls of the source. Rule as the data show it: active = GI50 up to about 1.1 µM and inactive = higher.
Lab note: assign the record to one of 1 = active, -1 = inactive

Give the logged outcome of this assay for the following molecule: `[N-]=[N+]=Nc1ccc2c(c1)Sc1ccccc1N2CCCCCl`
-1

So what was the verdict on Cc1ccc(C2NC(=N)NC3=C2CCOc2c3ccc3ccccc23)cc1 (stereo unspecified) in this test?
-1

Recorded test outcome, item `CCOC(=O)c1c(OCC)[nH]c(=O)c(C(c2ccc(F)cc2)c2c(O)c(C(=O)OCC)c(OCC)[nH]c2=O)c1O`
-1

---
Would you mind telling me which call this test gave `COc1ccccc1NC(=S)Nc1cc(C)ccn1` ?
-1

So what was the verdict on CC(O)C(O)C(O)C(/C=N\Nc1ccccc1)=N/Nc1ccccc1 (stereo unspecified) in this test?
-1

Fill in: this test's call for CC(=O)OCCC(O[Si](c1ccccc1)(c1ccccc1)C(C)(C)C)C(C)(C)O (stereo unspecified) is ___
-1

Outcome? O=C(OCC1CC(C2(O)CCCCC2)C(=O)O1)c1ccccc1 (stereo unspecified)
-1

Fill in: this test's call for CCCCCC(=O)C(C)C1=Nc2nnc(CCCCCCCc3nnc4n3C(=O)C(C(C)C(=O)CCCCC)=N4)n2C1=O (stereo unspecified) is ___
-1

Per the assay record, what outcome was assigned to O=C1CCC2(CC1CCSc1ccccc1)OCCO2 (stereo unspecified) ?
-1

Would you mind telling me which call this test gave `O=C1CSC(=S)N1c1ccco1` ?
-1

----------
test system: HCT-116; test: NCI tumour cell line growth inhibition, 48 h
Where a name gives a salt, the structure may show the parent alone. Activity calls are given as the source filed them. Cut-off read from the data, not from the text of the source: active = GI50 up to about 1.1 µM and inactive = higher.
Give one outcome, nothing more. List: Yes (active), No (inactive)

Worked cases, answers included:
Which outcome was entered for the compound `N#CSCc1nc2ccc(Cl)cc2c(-c2ccccc2)[n+]1[O-]` in this test?
No

Status in this test for N[C@@H](Cc1ccc(N(CCCl)CCCl)cc1)C(=O)O [MELPHALAN HYDROCHLORIDE] ?
No

So what was the verdict on `O=C(CCC(=O)CC(O)(C(F)(F)F)C(F)(F)F)CC(O)(C(F)(F)F)C(F)(F)F` in this test?
No

Others:
Status in this test for `O=[N+]([O-])c1cnn(C2=CNc3ccccc3N=C2)c1` ?
No

Look up the recorded call for CC1OC(n2cc(F)c(=O)[nH]c2=O)C(O[Si](C)(C)C(C)(C)C)C1O[Si](C)(C)C(C)(C)C (centres undefined) in this test.
No

Assay result, entry `Cc1ccc(/C=N\NC(=O)c2ccncc2)s1` — outcome?
No

Dear colleague, could you share the recorded outcome for CCOC(=O)C(C)c1nc2cc(N3CCOCC3)c(F)cc2[nH]c1=O (centres undefined) when you have a moment?
No

Called result for CC(O)C1(O)C(O)CC(OC2c3cc4c(c(O)c3[C@@H]3C[C@@]2(C)OC32C=c3cc[nH]c3=N2)C(=O)c2cccc(O)c2C4=O)OC1C (some centres undefined)
Yes

State the result this test recorded for C[C@]12CC[C@@H]3c4ccc(O)cc4CC[C@H]3[C@@H]1CC[C@@H]2OC(=O)CCC1CCCC1 [ESTRADIOL CYPIONATE] .
No

Outcome? `C(=N\NC1=NCCN1)/c1cccc2cc3ccncc3nc12`
No
